assay: FRG1 promoter luciferase signal modulators, primary screen, FRG1 inhibition for FSHD, cell-based, C2C12 myotubes, firefly/Renilla luciferase, luminescence (AID 1084); conditions: higher = more signal, called active from +8 up or from −8 down
z-score vs 0.4: at or above is yes, below is no.

Request: Reported z-score reaches at least 0.4 for "CO[C@H]1COC(=O)CCC[C@H](C)[C@@H](OC)COC(=O)CC=C[C@@H]1C" ?
Result: no

Request: Decide: z-score of "COC(=O)C1=C(C)N(Cc2ccccc2)C2=C3C(=O)OCC[C@@H]3[C@@](O)(C(=O)OC)C(=O)N2[C@@H]1c1ccccc1" >= 0.4?
Result: no

Request: Is reported z-score greater than or equal to 0.4 here: "CC(CCN1CCCCc2nc(C)c(C)cc21)=NOC[C@@H](O)[C@H]1O[C@@H]2OC(C)(C)O[C@@H]2[C@H]1O"
Result: yes

Request: Tell me whether z-score is at least 0.4 here: "COC(=O)[C@@H]1CC[C@H](C)[C@@H](c2ccc(Br)cc2)N1C[C@@H](O)CN=[N+]=[N-]"
Result: yes

Request: Does z-score meet or surpass 0.4 for "O=C1C[C@@H](O)[C@@H](O)[C@@H]2[C@@H]3C(=O)N(C4CCCCC4)C(=O)[C@@H]3CC[C@@H]12" ?
Result: no

Request: Given "Cc1ccc(C(C)C)n1C(=O)OC(C)(C)C" , state whether its z-score is at least 0.4.
Result: no

Request: Please indicate if the recorded z-score for "CCCC[C@H]1CN2[C@@H](CC[C@@H](C)[C@@H]2c2ccc(Br)cc2)C(=O)O1" meets or exceeds 0.4.
Result: no

Request: Please indicate if the recorded z-score for "COc1cccc([C@H]2Oc3ccc(OC)cc3C(=NOCC[C@@H]3C=C[C@H](OC(C)=O)[C@@H](COC(C)=O)O3)[C@@H]2O)c1" meets or exceeds 0.4.
Result: yes
